All values here come from patent US20240116877A1.

pIC50: −log10 of the molar value.
So I've got a bunch of molecules here, and I need their pIC50 values.

Quick check: pIC50 on c-KIT kinase (uKIT) (Homo sapiens (Human)), item COCCOc1cc(F)c2c(Nc3ccc(NC(=O)OCCC(C)(C)C#N)cc3)ncnc2c1 [Example 46] ?
≥ 8.00

Quick check: pIC50 on c-KIT kinase (uKIT) (Homo sapiens (Human)), item COCCOc1cc(F)c2c(Nc3ccc(NC(=O)NCCC(C)C)cc3)ncnc2c1 [Example 18] ?
≥ 8.00

Quick check: pIC50 on c-KIT kinase (uKIT) (Homo sapiens (Human)), item COCCOc1cc(F)c2c(Nc3ccc(NC(=O)NCCC(C)(C)C#N)cc3F)ncnc2c1 [Example 70] ?
< 6.00

Quick check: pIC50 on c-KIT kinase (uKIT) (Homo sapiens (Human)), item COCCOc1cc2ncnc(Nc3ccc(NC(=O)NCCC(C)(C)F)cc3)c2cc1OCCOC [Example 222] ?
7.00 to 8.00

Quick check: pIC50 on c-KIT kinase (uKIT) (Homo sapiens (Human)), item COCCOc1cc(F)c2c(Nc3ccc(NC(=O)CC(=O)NC4(C(C)C)CC4)cc3)ncnc2c1 [Example 128] ?
7.00 to 8.00

Quick check: pIC50 on c-KIT kinase (uKIT) (Homo sapiens (Human)), item CC(C)(F)CCNC(=O)Nc1ccc(Nc2ncnc3cc(OCCCN4CCCC4)cc(F)c23)cc1 [Example 158] ?
≥ 8.00

Quick check: pIC50 on c-KIT kinase (uKIT) (Homo sapiens (Human)), item COCCOc1cc(F)c2c(Nc3ccc(NC(=O)CC(=O)NCC4CCOCC4)cc3)ncnc2c1 [Example 78] ?
6.00 to 7.00

Quick check: pIC50 on c-KIT kinase (uKIT) (Homo sapiens (Human)), item CC(C)(F)CCNC(=O)Nc1ccc(Nc2ncnc3cc(OCCN4CCOCC4)cc(F)c23)cc1 [Example 39] ?
≥ 8.00

###

- test system: c-KIT kinase (uKIT) (Homo sapiens (Human), UniProt P10721)
- Sequence (P10721 other isoform, or with tags, fused parts or gaps): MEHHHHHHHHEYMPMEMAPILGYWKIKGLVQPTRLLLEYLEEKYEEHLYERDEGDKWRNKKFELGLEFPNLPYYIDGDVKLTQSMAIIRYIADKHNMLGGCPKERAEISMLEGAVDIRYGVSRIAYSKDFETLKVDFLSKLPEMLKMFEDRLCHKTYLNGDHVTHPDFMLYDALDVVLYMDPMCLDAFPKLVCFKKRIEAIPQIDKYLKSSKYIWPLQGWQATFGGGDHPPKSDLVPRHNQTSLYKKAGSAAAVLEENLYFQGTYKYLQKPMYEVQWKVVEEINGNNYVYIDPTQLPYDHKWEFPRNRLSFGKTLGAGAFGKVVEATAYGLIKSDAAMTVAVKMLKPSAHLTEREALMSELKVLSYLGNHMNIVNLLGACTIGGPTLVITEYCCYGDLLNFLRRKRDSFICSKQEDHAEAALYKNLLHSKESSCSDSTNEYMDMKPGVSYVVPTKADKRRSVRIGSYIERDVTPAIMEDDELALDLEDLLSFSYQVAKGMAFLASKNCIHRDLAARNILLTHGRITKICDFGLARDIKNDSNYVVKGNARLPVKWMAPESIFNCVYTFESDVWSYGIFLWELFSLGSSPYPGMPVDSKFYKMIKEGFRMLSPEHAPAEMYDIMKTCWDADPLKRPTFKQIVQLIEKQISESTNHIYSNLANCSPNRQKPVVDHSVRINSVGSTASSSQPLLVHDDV
pIC50: −log10 of the molar value.
readout type: pIC50

Item COCCOc1ccc2c(Nc3ccc(NC(=O)NCCC(C)(C)F)cn3)ncnc2c1 has what recorded pIC50?
6.00 to 7.00

Item COCCOc1cc(F)c2c(Nc3ccc(NC(=O)CC(=O)NCC4CC5(CCC5)C4)cc3)ncnc2c1 has what recorded pIC50?
≥ 8.00

Item COCCOc1cc(F)c2c(Nc3ccc(NC(=O)NCCC4CCCC4)cc3)ncnc2c1 has what recorded pIC50?
≥ 8.00

Item COc1cc2ncnc(Nc3ccc(NC(=O)CC(=O)NCC(C)(C)C)cc3)c2cc1OC has what recorded pIC50?
7.00 to 8.00

Item COCCOc1cc(F)c2c(Nc3ccc(NC(=O)CC(=O)N(C)C(C)C)cc3)ncnc2c1 has what recorded pIC50?
7.00 to 8.00

Item COCCOc1cc(F)c2c(Nc3ccc(NC(=O)CC(=O)NC4CCCCC4)cc3)ncnc2c1 has what recorded pIC50?
≥ 8.00

Item COCCOc1cc(F)c2c(Nc3ccc(NC(=O)CC(=O)NCCC(C)(C)OC)cc3)ncnc2c1 has what recorded pIC50?
7.00 to 8.00

Item CC(C)Oc1cc(F)c2c(Nc3ccc(NC(=O)NCCC(C)(C)F)cc3)ncnc2c1 has what recorded pIC50?
≥ 8.00

###

- Test system: Ba/F3 KIT mutant cells
- test description: Ba/F3 mutant KIT Cell Proliferation Assays (resazurin)
- Assay type: cell-based
- cond: Mus musculus, BaF3; Ba/F3 KIT exon11del-V654A mutant cell proliferation; read-out: exon11del-V654A IC50
pIC50: −log10 of the molar value.
So I've got a bunch of compounds here, and I need their pIC50 values.

Item CN(C)CCOc1cc(F)c2c(Nc3ccc(NC(=O)NCCC(C)(C)C#N)cc3)ncnc2c1 has what recorded pIC50?
< 6.00

Item CN(C)C(=O)COc1cc(F)c2c(Nc3ccc(NC(=O)NCCC(C)(C)F)cc3)ncnc2c1 has what recorded pIC50?
7.00 to 8.00

Item CC(C)(F)CCNC(=O)Nc1ccc(Nc2ncnc3cc(OCCN4CCOCC4)cc(F)c23)cc1 has what recorded pIC50?
7.00 to 8.00

Item COc1cc(F)c2c(Nc3ccc(NC(=O)NCCC(C)(C)OC)cc3)ncnc2c1 has what recorded pIC50?
7.00 to 8.00

Item COCCOc1cc(F)c2c(Nc3ccc(NC(=O)CCC(C)(C)OC)cc3)ncnc2c1 has what recorded pIC50?
7.00 to 8.00

Item COCCOc1cc(F)c2c(Nc3ccc(NC(=O)N[C@H]4CC[C@@H](C(F)(F)F)CC4)cc3)ncnc2c1 has what recorded pIC50?
≥ 8.00

Item COCCOc1cc(OC)c2c(Nc3ccc(NC(=O)CC(=O)N(C)C(C)(C)C)cc3)ncnc2c1 has what recorded pIC50?
6.00 to 7.00

Item CN1CC[C@@H](Oc2cc(F)c3c(Nc4ccc(NC(=O)NCCC(C)(C)F)cc4)ncnc3c2)C1 has what recorded pIC50?
7.00 to 8.00

Item CC(C)(F)CCNC(=O)Nc1ccc(Nc2ncnc3cc(OC4COC4)cc(F)c23)cc1 has what recorded pIC50?
7.00 to 8.00

Item COCCOc1cc(F)c2c(Nc3ccc(NC(=O)CC(=O)NCC4CCCC4)cc3)ncnc2c1 has what recorded pIC50?
7.00 to 8.00

Item COCCOc1cc(F)c2c(Nc3ccc(NC(=O)CC(=O)N4CCCC(F)(F)C4)cc3)ncnc2c1 has what recorded pIC50?
6.00 to 7.00

Item COCCOc1cc(F)c2c(Nc3ccc(NC(=O)CC(=O)NCCC(C)(C)F)cc3)ncnc2c1 has what recorded pIC50?
7.00 to 8.00

Item COc1cc2ncnc(Nc3ccc(NC(=O)NCCC(C)(C)C#N)cc3)c2cc1OC has what recorded pIC50?
< 6.00

Item COCCOc1cc(F)c2c(Nc3ccc(NC(=O)OCCC(C)(C)C#N)cc3)ncnc2c1 has what recorded pIC50?
7.00 to 8.00

Item COCCOc1cc(F)c2c(Nc3ccc(NC(=O)COCC4CCCO4)cc3)ncnc2c1 (centres unmarked) has what recorded pIC50?
6.00 to 7.00

Item COCCOc1cc(F)c2c(Nc3ccc(NC(=O)CC(=O)NC4CC(C)(C)C4)cc3)ncnc2c1 has what recorded pIC50?
≥ 8.00

Item COCCOc1cc(F)c2c(Nc3ccc(NC(=O)NC4CCC(C(F)(F)F)CC4)cc3)ncnc2c1 (centres unmarked) has what recorded pIC50?
7.00 to 8.00

Item COCCOc1cc(F)c2c(Nc3ccc(NC(=O)NCCC(C)(C)C#N)c(F)c3)ncnc2c1 has what recorded pIC50?
≥ 8.00

Item COCCOc1cc(F)c2c(Nc3ccc(NC(=O)CC(=O)NC4CC5(CCC5)C4)cc3)ncnc2c1 has what recorded pIC50?
≥ 8.00

Item COCCOc1cc(F)c2c(Nc3ccc(NC(=O)CC(=O)NC4CC5(COC5)C4)cc3)ncnc2c1 has what recorded pIC50?
6.00 to 7.00

Item COCCOc1cc(F)c2c(Nc3ccc(NC(=O)CCCC(C)C)cc3)ncnc2c1 has what recorded pIC50?
7.00 to 8.00

Item COCCOc1cc(F)c2c(Nc3ccc(NC(=O)NCCC4CCOCC4)cc3)ncnc2c1 has what recorded pIC50?
≥ 8.00

Item CC(C)(F)CCNC(=O)Nc1ccc(Nc2ncnc3cc(OC[C@H]4CCCO4)cc(F)c23)cc1 has what recorded pIC50?
7.00 to 8.00

Item COCCOc1cc(F)c2c(Nc3ccc(NC(=O)CC(=O)NC4(C(F)(F)F)CC4)cc3)ncnc2c1 has what recorded pIC50?
≥ 8.00

Item COC[C@@H](C)Oc1cc(F)c2c(Nc3ccc(NC(=O)NCCC(C)(C)F)cc3)ncnc2c1 has what recorded pIC50?
7.00 to 8.00

Item COCCOc1cc(F)c2c(Nc3ccc(NC(=O)CC(=O)NC[C@H]4CCCO4)cc3)ncnc2c1 has what recorded pIC50?
7.00 to 8.00

Item COCCOc1cc(F)c2c(Nc3ccc(NC(=O)C(F)(F)C(=O)NCC(C)(C)C)cc3)ncnc2c1 has what recorded pIC50?
7.00 to 8.00

Item COCCOc1cc(F)c2c(Nc3ccc(NC(=O)CCC4CCOCC4)cc3)ncnc2c1 has what recorded pIC50?
7.00 to 8.00

Item COCCOc1cc(F)c2c(Nc3ccc(NC(=O)NCCN4CCCC4=O)cc3)ncnc2c1 has what recorded pIC50?
6.00 to 7.00

Item COCCOc1ccc2ncnc(Nc3ccc(NC(=O)NCCC(C)(C)C#N)cc3)c2c1F has what recorded pIC50?
6.00 to 7.00

Item COCCOc1cc(F)c2c(Nc3ccc(NC(=O)NCCC4(OC)CC4)cc3)ncnc2c1 has what recorded pIC50?
7.00 to 8.00

Item COCCOc1cc(F)c2c(Nc3ccc(NC(=O)CC(=O)N4[C@H](C)COC[C@@H]4C)cc3)ncnc2c1 has what recorded pIC50?
< 6.00
